Every entry's value here was drawn from patent US20200247855A1.

Biological target: T1, CCL8_HUMAN (human), P80075
T1 chain: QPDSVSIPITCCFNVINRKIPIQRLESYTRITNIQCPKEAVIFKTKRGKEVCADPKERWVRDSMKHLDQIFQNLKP
Assay: FACS, inhibition of CCL8-647 binding to THP-1 cells
Conditions: modification not given
property: IC50 (µM)
Express the result in µM but write the number alone.

EDEDYEDFFKPVTAYF [P672_PEP (peptide BK1.1)] yielded IC50 of 4.9
